biological target: Thrombin (Homo sapiens, UniProt P00734)
Property Label: Ki (nM)
Use nM as the unit, but write only the number.

Ki for CNC(=O)[C@@H]1CN(C(=O)[C@H](Cc2ccccc2CNC(=N)N)NC(=O)N(C)[C@H]2CCOc3ccccc32)C[C@H]1c1ccc(OC)cc1 ? 1
